TGI overview
# Tested on: A549 NSCLC
# assay-name: NCI tumour cell line growth inhibition, 48 h

C=C1CC2CC[C@@]34C[C@@H]5O[C@@H]6C(O[C@H]7CC[C@H](CC(=O)OC8[C@@H](C)C9OC%10C[C@]%11(C[C@@H]%12O[C@@]%13(C[C@@H](C)[C@@H]%12O%11)C[C@H](C)[C@@H]%11OC%12CC(C(O)CO)OC%12C[C@@H]%11O%13)OC%10CC9O[C@H]8C[C@H]8O[C@@H](CC[C@@H]1O2)C[C@@H](C)C8=C)O[C@@H]7[C@@H]6O3)C5O4 (some centres not stated): > 1.48 µM

The record that follows has no TGI shown yet.
### Prompt What measured TGI is associated with CCCCOC1CC2(c3ccc(OC)cc3)C(=O)c3ccccc3N2O1 (configuration not stated) on A549 NSCLC?
### Response > 100 µM

###

# Test system: RPMI-8226 leukemia
# assay-name: NCI tumour cell line growth inhibition, 48 h
endpoint: TGI

Worked examples, 10 molecules total:
CC(=O)[CH-]C(=O)c1ccccc1.CC(=O)[CH-]C(=O)c1ccccc1.[Nd+3].[OH-].[OH3+]: > 100 µM
CCOC(=O)C1(Cc2ccc(C)cc2)Cc2ccc(C)cc2C1=O (configuration not stated): 64.2 µM
COc1cc(OC)cc(N2CCC(c3c(N)nc(N)nc3Cl)CC2)c1: > 100 µM
COc1ccc(-c2cc3c4c(nc5ccccc5c4c2)CC(c2cc(OC)c(OC)c(OC)c2)O3)cc1 (configuration not stated): > 100 µM
COc1ccc(-c2nc(-c3nc4ccc(F)cc4[nH]3)cc3c2[nH]c2ccccc23)cc1: 3.92 µM
CN(C(=O)c1ccc(F)cc1C(F)(F)F)C1CCN(c2nnc(-c3ccnn3C)c3ccccc23)CC1: > 100 µM
N#C/C(=C\c1ccc(CP(=O)(O)O)cc1)C(N)=O: > 100 µM
O=CC1=CCCC2(C1)OCCO2: > 100 µM
CS(=O)(=O)c1nccc(-c2c(-c3cccc(OCc4ccc(F)cc4)c3)nc3sccn23)n1: > 51 µM
CCOC(=O)NNC(=O)NCCNC(=O)NNC(=O)OCC: > 100 µM

### Prompt Item: CCCC[C@@H]1NC(=O)[C@H](CCCCN)NC(=O)[C@H](CCCNC(=N)N)NC(=O)[C@H](CC(C)C)NC(=O)[C@@H](NC(=O)[C@H](Cc2cccc(Cl)c2)NC(=O)[C@@H]2CCCN2C(=O)[C@@H](NC(C)=O)C(C)C)CCSSC[C@@H](C(=O)N[C@@H](CCCCN)C(=O)N2CCC[C@H]2C(=O)N2CCC[C@H]2C(=O)N[C@@H](CCC(=O)O)C(N)=O)NC(=O)[C@H](Cc2ccccc2)NC(=O)[C@H](CO)NC(=O)[C@H](C)NC(=O)[C@@H]2CCCN2C1=O Test system: RPMI-8226 leukemia Read-out: TGI Value: ?
### Response > 50 µM

### Prompt Item O=C(c1ccccc1)c1ccc(-c2ccc(O)cc2)cc1 with RPMI-8226 leukemia - TGI?
### Response 18.3 µM

###

The following compounds are listed with their measured GI50 values.
# Tested on: A498 renal
# assay-name: NCI tumour cell line growth inhibition, 48 h

As a guide, the following entries are already answered.
O=C(Cn1ccnc1[N+](=O)[O-])N(CCO)CCO: > 250000 nM
C[C@@H]1O[C@@H](O[C@H]2C[C@@H](O)[C@]3(CO)C4C(CC[C@]3(O)C2)[C@@]2(O)CC[C@H](C3=CC(=O)OC3)[C@@]2(C)C[C@H]4O)[C@H](O)[C@H](O)[C@H]1O (stereo not given in full): 38.7 nM
C=C1CC2CC[C@@]34C[C@@H]5O[C@@H]6C(O[C@H]7CC[C@H](CC(=O)OC8[C@@H](C)C9OC%10C[C@]%11(C[C@@H]%12O[C@@]%13(C[C@@H](C)[C@@H]%12O%11)C[C@H](C)[C@@H]%11OC%12CC(C(O)CO)OC%12C[C@@H]%11O%13)OC%10CC9O[C@H]8C[C@H]8O[C@@H](CC[C@@H]1O2)C[C@@H](C)C8=C)O[C@@H]7[C@@H]6O3)C5O4 (stereo not given in full): < 0.148 nM
Cc1ccc(S(=O)(=O)N(C)C)cc1[N+](=O)[O-]: > 100000 nM

Next up:
### Prompt Need GI50 of O=C(NNc1nc2cc(F)ccc2n2c(CN3CCOCC3)ccc12)c1ccccc1 , thanks.
### Response 495 nM

###

# Test system: SK-MEL-28 melanoma
# assay-name: NCI tumour cell line growth inhibition, 48 h
Below is a list of entries, each paired with its recorded TGI value.

### Prompt Give the measured TGI of Nc1nc2ncn(CCO)c2c(=O)[nH]1 .
### Response > 100 µM

### Prompt Suppose we examine the molecule COc1ccc(-c2cc3cccc(OC)c3c(=O)o2)cc1OC ; what TGI value has been reported?
### Response > 100 µM

### Prompt Tell me the measured TGI of O=C1N[C@H]2c3c(Cl)sc(Cl)c3C(=O)[C@H]2O1 , please.
### Response 24.7 µM

### Prompt Entry under review: O=C(C=P(c1ccccc1)(c1ccccc1)c1ccccc1)C12CC3CC(CC(C3)C1)C2 . Reported TGI?
### Response 31.8 µM

### Prompt // TGI lookup, key: CC(C)(C)C1CCC2c3c([nH]c4ccccc34)C3C(=O)N(c4cc(Br)cc(Br)c4)C(=O)C3C2C1 (centres undefined)
### Response 25.9 µM

### Prompt I would be grateful if you could share the reported TGI for C1=C2SSC3=CC=C(SSc4ccc(s4)SSC4=CC=C(SSC(=C1)S2)S4)S3 .
### Response > 100 µM

### Prompt Given the entry O=C(NNc1nc2cc(F)ccc2n2c(CN3CCOCC3)ccc12)c1ccccc1 , report its measured TGI.
### Response 1.78 µM

### Prompt Looking for the measured TGI of On1c(-c2ccccc2)c(-c2c(-c3ccccc3)n(O)c3ccccc23)c2ccccc21 , can you help?
### Response > 100 µM

### Prompt Returns the measured TGI for the input molecule. Input: CCOC(=O)C1NCCc2c1[nH]c1ccccc21 (centres undefined)
### Response > 10 µM

### Prompt State the recorded TGI for this entry: O=[N+]([O-])c1ccccc1S(=O)c1ccccc1 (centres undefined)
### Response > 100 µM

### Prompt Looking for the measured TGI of COC1/C=C\C=C(/C)C(=O)NC2=CC(=O)C(NCCCl)=C(CC(C)CC(OC)C(O)C(C)/C=C(/C)C1OC(N)=O)C2=O (centres undefined) , can you help?
### Response 2.52 µM

### Prompt I am curious: what TGI value has been reported for CCOC(=O)CC(C)C(C#N)(OP1(=O)OC(c2ccccc2)C(C)N1C)c1ccccc1 (centres undefined) ?
### Response > 100 µM

### Prompt Request the reported TGI associated with CS(=O)(=O)c1nccc(-c2c(-c3cccc(OCc4ccc(F)cc4)c3)nc3sccn23)n1
### Response > 100 µM

### Prompt I am curious: what TGI value has been reported for O=C(NC1CCCCC1)c1c(O)[nH]c(=S)[nH]c1=O ?
### Response > 100 µM

###

# Tested on: DMS 273 small cell lung
# assay-name: NCI tumour cell line growth inhibition, 48 h
endpoint: TGI

### Prompt Field request: TGI | item: CC(C)(C)c1nc2c(o1)C(=Nc1ccccc1)c1ccccc1C2=O
### Response 11.3 µM

### Prompt Sample O=c1[nH]cnc2c1nnn2CCCn1nnc2c(=O)[nH]cnc21 — what was its TGI?
### Response > 100 µM

### Prompt Look up TGI for this molecule: C=C1CC2CC[C@@]34C[C@@H]5O[C@@H]6C(O[C@H]7CC[C@H](CC(=O)OC8[C@@H](C)C9OC%10C[C@]%11(C[C@@H]%12O[C@@]%13(C[C@@H](C)[C@@H]%12O%11)C[C@H](C)[C@@H]%11OC%12CC(C(O)CO)OC%12C[C@@H]%11O%13)OC%10CC9O[C@H]8C[C@H]8O[C@@H](CC[C@@H]1O2)C[C@@H](C)C8=C)O[C@@H]7[C@@H]6O3)C5O4 (some centres undefined)
### Response < 0.000148 µM

### Prompt What value of TGI has been recorded for this entry: CC(=O)O[C@]1(C(C)=O)CC[C@H]2[C@@H]3C[C@H](C)C4=CC(=O)C=C[C@]4(C)[C@@]3(F)[C@@H](O)C[C@@]21C
### Response > 100 µM

###

# System: HOP-62 NSCLC
# assay-name: NCI tumour cell line growth inhibition, 48 h
endpoint: TGI

Use the examples below as a reference point.
N=C(N)/N=C(/C=C/c1ccccc1)CC1OC(=O)c2ccccc21 (stereo not given): > 100 µM
O=S(=O)(c1cccc(C(F)(F)F)c1)N1c2ccccc2-n2cccc2C1c1cccnc1 (stereo not given): > 66.8 µM
COc1ccc(C2CC(c3cc4c(C)c(C(=O)c5ccccc5)oc4cc3O)=Nc3ccccc3S2)cc1OC (stereo not given): > 34.3 µM
CCCCN(CC)C(=O)C(=O)C1C(=O)Nc2ccccc2S1=O (stereo not given): > 100 µM

Next up:
### Prompt Please report the recorded TGI for CCOn1cc(C[C@@]2(O)C(=O)OC3[C@@H](O)CO[C@@]32O)c2ccccc21 (stereo not given in full) .
### Response > 100 µM
